- Test system: HL-60
- EXPERIMENT: Cytotoxic activity against human HL60 cells
- Format: functional, cell-based
Measured pIC50 of individual entries
pIC50 here is simply -log10 of the concentration when that concentration is written in mol/L.

[[record]]
compound = "O=c1[nH]cc(F)c(=O)[nH]1"
target = "HL-60"
test_result = 5.55


Query (compound): `COC(=O)/C=C/c1oc(=O)c(COC(C)=O)c(OC)c1COC(C)=O` ; field requested: pIC50
6.28

Query (compound): `COC(=O)/C=C/c1oc(=O)c(CO)c(OC)c1COC(C)=O` ; field requested: pIC50
5.98

Query (compound): `COC(=O)/C=C/c1oc(=O)c(COC(C)=O)c(OC)c1CO` ; field requested: pIC50
6.19

Query (compound): COC(=O)C1C(c2oc(=O)c(COC(C)=O)c(OC)c2COC(C)=O)C(C(=O)OC)C1c1oc(=O)c(COC(C)=O)c(OC)c1COC(C)=O (stereo not given) ; field requested: pIC50
5.34

Values compiled from ChEMBL document CHEMBL4052756.
